- protocol_text: soluble on expression in E. coli; label from the status in PepcDB or PDB records

- entry_sequence: "DAIAVWGHRPSAAKPVAIAKAAGKPVIRLEDGFVRSLDLGVNGEPPLSLVVDDCGIYYDASKPSALEKLVQDKAGNAALADQAREAMHTIVTGDLSKYNLAPAFVADESERADIVLVVDQTFNDMSVTYGNAGPHEFAAMLEAAMEENPQAEIWVKVHPDVLEGKKTGYFADLRATQRVRLIAENVSPQSLLRHVSRVYVVTSQYGFEALLAGKPVTCFGQPWYAGWGLTDDRHPQSALLSARRGSATLEELFAAAYLRYCRYIDPLTG"
  soluble on expression in E. coli: "not soluble"
- entry_sequence: "MGSDKIHHHHHHMKTQFPSVWQDKLSQKHFSAFTTIQEAAFDPIKNGKSLLGISPTGSGKTLAYLWPSLLTLTPKKAQQLLILAPNTELAGQIFEVAKEWAQPLNLTAQLFLSGSSQKRQIERLKKGPEIIIGTPGRVFDLVKLKKIKMMNVNTIVLDEFDDLLGKSQIHFVKNIVKRVPRDHQMIYMSATNSIDRTFLADDTLEIDLSKQTVDTISHYYITVAKRERGELLRKFSNIPNFRGLVFFNRLSDLGANEERLQFSGASAVSLASDVNIKFRKVILEKFKNHELSLLLATDLVARGIDIELLETVINFDLPRDKDAYNHRAGRTGRMGKNGIVVTFISHPEELKKLKKFAHVSEVYLKNQILHKK"
  soluble on expression in E. coli: "not soluble"
